metric: melting point

>>> recordedmeasurement("O=C1c2cccnc2N(c2ccccc2)C(=O)C12CCCC2")
"178 to 179 °C"

Recorded melting point (compound `N#Cc1nn(-c2c(Cl)cc(C(F)(F)F)cc2Cl)cc1C(=O)C1CC1` ): 195 to 197 °C

Recorded melting point (compound `C(=C\c1cccs1)/c1ncon1` ): 78 °C

Recorded melting point (compound `CC1CCN(CCNc2nn3cnnc3c3c2CCCC3)CC1` ): 180 to 181 °C

Recorded melting point (compound `CCOC(=O)c1ccsc1Nc1ccc(F)cc1[N+](=O)[O-]` ): 125 °C

Recorded melting point (compound NC1=NC2(O)c3cc([N+](=O)[O-])ccc3CC2S1 (stereo unspecified) ): > 250 °C

---

metric: melting point

>>> recordedmeasurement("COC(=O)C1CN(Cc2cccnc2)C(=O)C(=C2SC=CS2)C1=O (stereo unspecified)")
"111 to 114 °C"
>>> recordedmeasurement("COc1ccccc1-c1cc2[nH]c3ccc(O)cc3c2c2c1C(=O)NC2=O")
"216 °C"
>>> recordedmeasurement("Nc1nc2c(ncn2COC(COCc2ccccc2)COCc2ccccc2)c(=O)[nH]1")
"170 to 177 °C"
>>> recordedmeasurement("COc1ccc(N2CCN(c3c(C)c(C)c4c(c3C)C(OCc3ccc(C)cc3)C(C)(C)O4)CC2)cc1 (stereo unspecified)")
"84 to 85 °C"
>>> recordedmeasurement("Cc1ccc(S(=O)(=O)N2CCC3(C=Cc4ccccc43)CC2)cc1")
"168 to 170 °C"

Recorded melting point (compound `O=C(Oc1ccc(Cl)c(Cl)c1)c1cc2c(cn1)[nH]c1ccccc12` ): 260 to 261 °C

Recorded melting point (compound `CN(C)c1nc(N)c2ccccc2n1` ): 141 to 142 °C

Recorded melting point (compound `O=C(NCCCSc1ccccn1)c1cccs1` ): 81 to 82 °C

Recorded melting point (compound `CCN(CC)c1ccc(/C=C/C(=O)CC(=O)/C=C/c2ccc3cc[nH]c3c2)c(OC)c1` ): 61 to 65 °C

Recorded melting point (compound `COc1cc(Cl)c(OC)cc1C` ): 90 to 92 °C

Recorded melting point (compound `O=Cc1cccc(Cl)n1` ): 136 °C

Recorded melting point (compound `c1ccc(COc2cc(-c3ccccn3)nc(-c3cccc(-c4ccccc4)n3)c2)cc1` ): 182 °C

Recorded melting point (compound `O=C1Nc2c(Br)cc(Br)c3cccc1c23` ): 259 to 260 °C

Recorded melting point (compound `CC1=C(C(=O)Nc2ccc(Cl)c(C(=O)OC(C)C)c2)SCCS1` ): 122 to 124 °C

Recorded melting point (compound Cc1ccc(C(=O)N[C@H](Cc2ccc(C(F)(F)F)cc2)[C@@H](O)c2ccc(F)cc2)c2ccccc12 (racemic) ): 198 to 199 °C

Recorded melting point (compound CC(C)(C)OC(=O)NC1CCCCc2cc(OCC3CCCCC3)c(C(N)=O)cc21 (stereo unspecified) ): 193 to 194 °C

Recorded melting point (compound C=C1CC(c2ccc(Br)s2)N(C)C1=O (stereo unspecified) ): 177 to 180 °C

Recorded melting point (compound `CS(=O)(=O)Nc1cc2c(cc1Oc1ccccc1)C(=O)C(Br)(Br)CO2` ): 169 to 170 °C

Recorded melting point (compound CC1CN(c2ccc(N)cc2Cl)C(=O)O1 (stereo unspecified) ): 140 to 141 °C

Recorded melting point (compound `N#Cc1cc(NC(=O)c2cc3ccccc3s2)ccc1OC1CCN(Cc2ccccc2)CC1` ): 206 °C

Recorded melting point (compound CCOC(=O)C1CC(C)CCN1C(=O)c1ccc(Cl)c(C2(C)C(=O)N(Cc3ccc(OC)cc3OC)c3ccc(Cl)cc32)c1 (stereo unspecified) ): 106 °C

---

Item-by-item account of melting point

>>> recordedmeasurement("C[C@@H](n1cnc2cc(-c3ccc(C#N)cc3)sc2c1=O)[C@](O)(Cn1cncn1)c1ccc(Cl)cc1Cl")
"133 to 138 °C"
>>> recordedmeasurement("CC(Br)C(=O)NS(=O)(=O)c1cccc2c1OC(C)(C)C2 (stereo not drawn)")
"224 to 226 °C"
>>> recordedmeasurement("O=P(O)(O)C(NCc1ccccc1)c1ccccc1 (stereo not drawn)")
"233 to 236 °C"
>>> recordedmeasurement("CCCCCCCNC(=O)Nc1cc(N(C)C)ccc1C(=O)NC1CCN(C(c2ccccc2)c2ccccc2)CC1")
"87 °C"
>>> recordedmeasurement("Cc1[nH]n(Cc2cc([N+](=O)[O-])ccc2Cl)c2nc(-c3ccncc3)nc(=O)c1-2")
"290 to 291 °C"

Recorded melting point (compound `O=[N+]([O-])c1ccc(OCc2ccc3ccccc3n2)cc1` ): 142 to 143 °C

Recorded melting point (compound `O=C1CCCc2nc3cc(Cl)ccc3c(NCc3ccc(F)cc3)c21` ): 156 to 158 °C

Recorded melting point (compound CC(=O)N(N1C(=O)C(NC(=O)Nc2cccc(C)c2)CC(c2ccccc2)CC1c1ccccc1)C(C)(C)C (single isomer, unassigned; (-)) ): 140 to 150 °C

---

metric: melting point

Below: 6 molecules and their reported melting point.
>>> recordedmeasurement("CCCc1cccc2c(/C=C(\\C)C(=O)O)cc(OC)c(OC(C)=O)c12")
"207 to 208 °C"
>>> recordedmeasurement("Cn1c(=O)oc2cc3c(cc21)C1(CO3)C(=O)N(CC2CCCO2)c2ccccc21 (stereo not given)")
"> 250 °C"
>>> recordedmeasurement("Cc1c(C(=O)Nc2ccc(OCC(C)(C)C)c(C#N)c2)cnn1CCO")
"98 to 100 °C"
>>> recordedmeasurement("CCOCc1cccc2[nH]cc(C(COC)C(C(=O)OCC)[N+](=O)[O-])c12 (stereo not given)")
"118 to 120 °C"
>>> recordedmeasurement("CC(NSc1nc2ccccc2s1)c1ccccc1 (stereo not given)")
"50 to 53 °C"
>>> recordedmeasurement("CCCCNc1ncc2ccc(=O)n(C)c2n1")
"146 to 147 °C"

Recorded melting point (molecule `CC(C)(C)P(c1cccc2ccccc12)C(C)(C)C` ): 95 to 97 °C

---

metric: melting point (°C)

>>> recordedmeasurement("CC(C)(Oc1ccc(OCc2nc(-c3ccc(C(F)(F)F)cc3)no2)cc1)C(=O)O")
164
>>> recordedmeasurement("Cc1ccc(S(=O)(=O)c2ccccc2S(=O)(=O)N=CN(C)C)cc1")
178

[I] O=C(OCC1OC(n2cc(I)c(=O)[nH]c2=O)C(F)C1OC(=O)c1ccccc1)c1ccccc1 (centres undefined)
[II] CCCCc1sc2ccc([N+](=O)[O-])cc2c1C(=O)c1ccc(OCCCN(CCCC)CCCC)cc1
(Q) I'm curious whether I or II has the smaller melting point number. Which is it? // caller expects the label of the chosen entry
(A) II
(II: 88 °C, I: 197 °C)

---

Item-by-item account of melting point

Below: 3 compounds and their reported melting point.
>>> recordedmeasurement("O=c1ccc(Br)cn1CC1(O)CCN(Cc2ccccc2)CC1")
"146 to 148 °C"
>>> recordedmeasurement("O=C(Nc1ccc(CCN2CCCCC2)cc1)C1=Cc2cc(-c3ccccc3)ccc2CC1")
"157 to 159 °C"
>>> recordedmeasurement("CCN(CC)c1ccc(C(c2ccc(N(C)C)cc2)c2ccc(N(C)C)cc2)c(OC(=O)Nc2ccccc2)c1")
"145 to 146 °C"

Recorded melting point (compound `Cc1ccc(-c2c(-c3ccncc3)nc(-c3c(Cl)cccc3Cl)n2C)cc1` ): 214 to 217 °C

Recorded melting point (compound C=CC1CCC(C2CCC3c4ccc(OCC)c(F)c4OC3C2)CC1 (stereo not given) ): 132 °C

---

metric: melting point

>>> recordedmeasurement("COc1ccc(C(=O)c2ccc(OCc3coc(-c4ccccc4)n3)cc2)c(OC(C)(C)C(=O)O)c1")
"165 to 167 °C"
>>> recordedmeasurement("O=C(Nc1ccccn1)c1cnc2c(c1O)CCCC2")
"> 300 °C"
>>> recordedmeasurement("COC(=O)c1ccc(-c2nc(-c3ccc4c(c3)C(C)(C)CCC4(C)C)co2)cc1")
"207 to 208 °C"
>>> recordedmeasurement("CCN(CC)c1cccc2nc3n(c12)CC(OC)CCN3c1ccc(Cl)cc1Cl (stereo not given)")
"120 to 122 °C"
>>> recordedmeasurement("CCOC(=O)COc1c(C=O)cccc1OC")
"75.1 to 76.2 °C"
>>> recordedmeasurement("CC(=O)N1CC(C)(C)c2cc3nc(C(F)(F)F)[nH]c3cc21")
"290 to 291 °C"
>>> recordedmeasurement("COC(=O)C(CC(C)C)NC(=O)c1ccc(NCc2ncc[nH]2)cc1-c1ccccc1 (stereo not given)")
"156 to 160 °C"
>>> recordedmeasurement("Cc1nc[nH]c1CSCCNC(=N)NCC(C)SCc1[nH]cnc1C (stereo not given)")
"173 to 175 °C"
>>> recordedmeasurement("Cc1nn(C)c(OCC(=O)C(C)(C)C)c1C(=O)c1ccc(Cl)cc1Cl")
"104 to 105 °C"
>>> recordedmeasurement("O=C(N[C@@H]1CCC[C@H]1O)C(O)=CC(=O)c1cc(Cc2ccc(F)cc2)cn(Cc2ccccc2F)c1=O")
"67 to 69 °C"

Recorded melting point (compound CCOC(=O)N(C(=O)N1CC(c2ccc(Cl)cn2)C(c2ccc(F)cc2)=N1)c1ccc(OC(F)(F)F)cc1 (stereo not given) ): 160 to 161 °C

Recorded melting point (compound `O=S(=O)(c1ccc(O)cc1)c1ccc(F)cc1` ): 150 to 154 °C

Recorded melting point (compound CC(=O)OC1CCC2(C)C(CCC3C4CC5OC6(CC(C)C(C)(C)O6)C(C)(O)C5C4(C)CC(OC(C)=O)C32)C1 (stereo not given) ): 253 to 256 °C

Recorded melting point (compound `COC(=O)c1ccc2ccc3ccccc3c(=O)c2c1` ): 118 to 120 °C

Recorded melting point (compound `ON=Cc1c(-c2ccccc2F)ccc2c1OCO2` ): 197 to 198 °C
